Entry source: the DeepSol protein solubility set

Test: soluble on expression in E. coli; label from the status in PepcDB or PDB records

| sequence | soluble on expression in E. coli |
| --- | --- |
| MAHHHHHHMLHTTRLWLGGYMMYHRKAMGTMKYSKWKGAHGGISHFYGRTPMVEEVRPNEPITLVDRRIMHYVHHSRLRHFQLFRSYQEKSNSTECKLREGEMLRRRWHRRLQKSFIAFMQFKTMKVLEDQARLVNTYGQAAVNAALGDPWNATDNVARERKSAAVRRQVRALPMVNVVPKHVATMKQIHNDRFNYRWRVN | not soluble |
| METKCELNNTKKVANAFGLNEEDTNLLINAVDLDIKNNMQEISSELQQSEQSKQKQLGTTLQNLAKQNRIIK | not soluble |
| MGSDKIHHHHHHMSRPKILYFITEDWYFCSHRLPLALAARDAGYDVAVVTNVNEHADVIRRAGIRLIPFDLSRKGMNPASELAVLARLIALYRKEKPDIVHQVAMKPVLYGSLAARLSGVSRVVNALAGLGYIFTSDQPKARFLRPVIGSAFRGLLNSRRSRLILQNQDDRAKFIRKRFISEKRIRLIRGSGVDTAVFVPTPEPPGVPVVILPSRMLWDKGVREFVDAAGQLKKRGISARFVLVGDADPHNPSAIHTEQLTAWHAEGAVEWWGRRDDMPAVFEQSHIVCLPSYREGLPKVLLEAASCGRPIVTTDTPGCRDVVRQGENGLLVPVRGTAELADALQLLIEQPALRKKMGCKGREIVVSEFALEKVVAKTMNIYRELLKP | not soluble |
